Test: solubility comparison test in water and mannitol solutions
Assay type: physicochemical
Conditions: 1% of mannitol solution; read-out: Solubility in 1% of mannitol solution
Ends that are not written are not given here.
Please provide measured solubility for the entries that follow.

IN: Fill in the blank: the reported solubility of FITRPPHRFLSLLCLGLRIPQLSV [YMZH19] is ____.
OUT: > 1000 µg/mL

IN: Suppose we examine the sequence SVFGDRITGETIRSQNVMAAASK [WKYE17] ; what solubility value has been reported?
OUT: ≥ 1000 µg/mL

IN: If you can, please state the reported solubility value of KFKYVGTMEASEDATFNKITRSLQDLQQK [HMZH66] .
OUT: ≥ 10000 µg/mL

IN: Would you mind telling me what solubility value was observed for YKQLTIQVLLDRLVLQRLYPLAIQIKK [YMZH10] ?
OUT: ≥ 1000 µg/mL

IN: Recorded solubility of FAEKLTLILQEKYKNYWYPEKPSKGQAY [YMZH17] , please.
OUT: ≥ 1000 µg/mL

IN: State the recorded solubility for this entry: TSLKGEIAFDPRRAYYLWF [LXJI54, TSLKGEIAFDPRRAYYLWF]
OUT: ≥ 1000 µg/mL

IN: # lookup: solubility of SSPAEFFELMKGQIRIAKRRVVMASLYLGT [TZQI51]
OUT: ≥ 1000 µg/mL

IN: So what's the measured solubility for this one? KLTLASWGPKMVLLRLEHQFAVGK [YMZH14]
OUT: ≥ 1000 µg/mL

IN: For FHDQPHLKRKAVCSFQIYAVPWQGT [HMZH51] , what is its reported solubility?
OUT: ≥ 10000 µg/mL

IN: Suppose we examine the sequence KGFTQGDVGLAMGKLYRNDFSQTTISRFEA [TZQI66] ; what solubility value has been reported?
OUT: ≥ 1000 µg/mL

Numbers sourced from patent US20230338491A1.
